Assay: Cellular toxicity, reduction in growth of human embryonic cells
Conditions: flow 1000 cells
Property measured: inhibition at 48 h, 200 µM (%)
Report the figure in % without appending any unit label.

INSERT INTO assay_data (compound, property_measured, obs_value) VALUES
  ('Nc1nc2c(ncn2C/C=C\CO)c(=O)[nH]1 [VSA 151, cis-9-(4-hydroxy-2-butenyl)guanine]', 'inhibition at 48 h, 200 µM', 0);

Entry Nc1nc2c(ncn2CCC(CO)CO)c(=O)[nH]1 , inhibition at 48 h, 200 µM reported as 7

inhibition at 48 h, 200 µM in this record for Nc1nc2c(ncn2CC(CO)CCO)c(=O)[nH]1 (stereo not shown) : 18

Lab note: measured inhibition at 48 h, 200 µM of Nc1nc2c(ncn2CC=C(CO)CO)c(=O)[nH]1 was 0
